Recorded kinase still bound, per cent of control values for a group of compounds are listed next.
- Assay system: TNK1 (human) (UniProt Q13470)
- Sequence (Q13470 whole entry, looked up): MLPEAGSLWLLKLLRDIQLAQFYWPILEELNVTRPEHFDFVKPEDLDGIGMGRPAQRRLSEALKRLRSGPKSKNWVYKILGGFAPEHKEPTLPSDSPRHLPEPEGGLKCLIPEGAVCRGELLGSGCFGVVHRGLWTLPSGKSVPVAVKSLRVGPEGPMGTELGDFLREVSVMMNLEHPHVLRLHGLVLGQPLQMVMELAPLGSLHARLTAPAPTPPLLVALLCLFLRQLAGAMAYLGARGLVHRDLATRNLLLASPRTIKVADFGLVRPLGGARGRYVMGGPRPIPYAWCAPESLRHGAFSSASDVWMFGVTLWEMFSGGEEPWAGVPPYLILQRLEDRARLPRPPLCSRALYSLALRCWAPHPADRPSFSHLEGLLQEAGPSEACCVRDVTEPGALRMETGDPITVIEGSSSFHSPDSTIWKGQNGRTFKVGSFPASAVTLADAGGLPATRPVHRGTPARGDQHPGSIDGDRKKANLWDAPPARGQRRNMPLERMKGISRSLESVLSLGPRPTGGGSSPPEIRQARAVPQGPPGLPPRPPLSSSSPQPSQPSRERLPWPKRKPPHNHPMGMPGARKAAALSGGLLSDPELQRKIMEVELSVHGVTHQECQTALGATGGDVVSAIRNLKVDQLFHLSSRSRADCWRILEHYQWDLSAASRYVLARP
- Assay explanation: KINOMEscan competition binding
- Details: compound 10.0 µM

Hello, I am looking for reported kinase still bound, per cent of control with TNK1 (human) (UniProt Q13470) for CCN(CC)CCCCNc1ncc2cc(-c3cc(OC)cc(OC)c3)c(NC(=O)NC(C)(C)C)nc2n1 . Could you help?
100%

Notebook: pull reported kinase still bound, per cent of control for TNK1 (human) (UniProt Q13470), entry COCC(=O)NC/C=C/c1ccc2ncnc(Nc3ccc(Oc4ccc(C)nc4)c(C)c3)c2c1
86%

Give recorded kinase still bound, per cent of control with TNK1 (human) (UniProt Q13470) for the following compound: CNC(=O)c1cc(Oc2ccc(NC(=O)Nc3ccc(Cl)c(C(F)(F)F)c3)cc2)ccn1
37%

* * *

- Assay system: UniProtKB O14976
- Sequence (O14976 whole entry, looked up): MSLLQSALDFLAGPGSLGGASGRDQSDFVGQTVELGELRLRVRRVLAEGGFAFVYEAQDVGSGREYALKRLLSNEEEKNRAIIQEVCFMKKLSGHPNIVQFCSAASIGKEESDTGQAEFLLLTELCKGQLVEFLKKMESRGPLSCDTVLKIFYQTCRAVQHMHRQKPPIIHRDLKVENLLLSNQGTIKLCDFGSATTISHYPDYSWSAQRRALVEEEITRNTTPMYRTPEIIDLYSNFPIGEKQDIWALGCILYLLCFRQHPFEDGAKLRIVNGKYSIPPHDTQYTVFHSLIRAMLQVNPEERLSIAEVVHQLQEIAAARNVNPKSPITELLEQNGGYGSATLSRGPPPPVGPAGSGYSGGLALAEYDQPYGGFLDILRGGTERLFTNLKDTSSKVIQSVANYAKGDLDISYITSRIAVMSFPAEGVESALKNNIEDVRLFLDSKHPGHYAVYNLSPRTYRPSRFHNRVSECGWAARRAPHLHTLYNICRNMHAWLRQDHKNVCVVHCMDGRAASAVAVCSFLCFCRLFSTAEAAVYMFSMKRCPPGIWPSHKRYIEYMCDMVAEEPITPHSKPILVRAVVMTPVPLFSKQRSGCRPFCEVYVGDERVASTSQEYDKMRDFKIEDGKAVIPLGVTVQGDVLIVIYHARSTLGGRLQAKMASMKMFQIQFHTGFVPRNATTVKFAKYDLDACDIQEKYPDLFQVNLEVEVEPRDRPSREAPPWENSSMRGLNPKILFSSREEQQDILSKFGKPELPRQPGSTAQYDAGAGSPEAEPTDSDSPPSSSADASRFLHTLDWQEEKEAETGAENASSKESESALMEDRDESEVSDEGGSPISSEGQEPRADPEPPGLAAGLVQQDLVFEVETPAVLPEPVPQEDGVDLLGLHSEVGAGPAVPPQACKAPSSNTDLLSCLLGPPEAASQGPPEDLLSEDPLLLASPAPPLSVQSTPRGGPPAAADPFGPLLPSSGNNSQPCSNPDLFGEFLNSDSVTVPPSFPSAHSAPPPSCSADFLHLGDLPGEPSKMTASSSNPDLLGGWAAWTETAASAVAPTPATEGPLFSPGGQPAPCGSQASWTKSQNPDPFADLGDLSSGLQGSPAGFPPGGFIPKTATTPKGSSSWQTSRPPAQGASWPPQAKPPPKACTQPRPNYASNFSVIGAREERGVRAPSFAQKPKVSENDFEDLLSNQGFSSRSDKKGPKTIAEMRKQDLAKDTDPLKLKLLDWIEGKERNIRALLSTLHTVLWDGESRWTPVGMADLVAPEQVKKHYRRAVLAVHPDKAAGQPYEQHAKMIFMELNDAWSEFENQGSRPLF
- Assay explanation: KINOMEscan competition binding
- Details: compound 10.0 µM
kinase still bound, per cent of control listing for selected compounds.
Write down the numeric answer in % and omit the unit.

For orientation, consider the following solved cases.
smiles_str=COCC(=O)NC/C=C/c1ccc2ncnc(Nc3ccc(Oc4ccc(C)nc4)c(C)c3)c2c1 assay_system="UniProtKB O14976" metric_name="kinase still bound, per cent of control" value_reported=84
smiles_str=O=C1NC(=O)/C(=C/c2ccc3nccc(-c4ccncc4)c3c2)S1 assay_system="UniProtKB O14976" metric_name="kinase still bound, per cent of control" value_reported=0

Would you kindly look at the next entry?
Give the measured kinase still bound, per cent of control of COc1cc(C(=O)N2CCC(N3CCN(C)CC3)CC2)ccc1Nc1ncc2c(n1)N(C)c1ccccc1C(=O)N2C .
16

* * *

Each record here notes measured kinase still bound, per cent of control.
- Assay system: STK24 (human)
- Assay explanation: KINOMEscan competition binding
- Details: compound 10.0 µM
Answer in %, number only, no unit symbol.

Some solved entries appear below for comparison.
smiles_str=C=CC(=O)Nc1cc(-n2c(=O)ccc3cnc4ccc(-c5cn[nH]c5)cc4c32)ccc1C metric_name="kinase still bound, per cent of control" value_unit=% value_reported=95
smiles_str=CCN(CC)CCCCNc1ncc2c(n1)N(C)C(=O)N(c1c(Cl)c(OC)cc(OC)c1Cl)C2 metric_name="kinase still bound, per cent of control" value_unit=% value_reported=13
smiles_str=COc1cc2ncn(-c3cc(OCc4ccccc4C(F)(F)F)c(C(N)=O)s3)c2cc1OC metric_name="kinase still bound, per cent of control" value_unit=% value_reported=87
smiles_str=COc1cc(C(=O)N2CCC(N3CCN(C)CC3)CC2)ccc1Nc1ncc2c(n1)N(C)c1ccccc1C(=O)N2C metric_name="kinase still bound, per cent of control" value_unit=% value_reported=87
smiles_str=C=CC(=O)Nc1ccc(CN(C(=O)Nc2c(Cl)c(OC)cc(OC)c2Cl)c2cc(Nc3ccc(N4CCN(C)CC4)cc3)ncn2)cc1 metric_name="kinase still bound, per cent of control" value_unit=% value_reported=18

Reported kinase still bound, per cent of control for STK24 (human), given NC(=O)Nc1cc(-c2cccc(F)c2)sc1C(=O)N[C@@H]1CCCNC1 ?
0.3

Find kinase still bound, per cent of control (STK24 (human)) for the entry COc1ccc(N(C(=O)Oc2c(C)cccc2C)c2ccnc(Nc3ccc(N4CCN(C)CC4)cc3)n2)c(OC)c1
52

API: value(readout= kinase still bound, per cent of control, system= STK24 (human), query= COc1cc(N2CCN(C)CC2)ccc1Nc1ncc2c(n1)N(C)c1ccccc1C(=O)N2C )
100

Param readout= kinase still bound, per cent of control; system= STK24 (human); entry= CCN1CCN(C(=O)Cc2ccc(Nc3ncc(F)c(Nc4ccc(C(=O)Nc5ccccc5Cl)cc4)n3)cc2)CC1 ; returns value.
32

Could you share what kinase still bound, per cent of control was measured for CCN(CC)CCCCNc1ncc2cc(-c3cc(OC)cc(OC)c3)c(NC(=O)NC(C)(C)C)nc2n1 , tested on STK24 (human)?
7

Item COCC(=O)NC/C=C/c1ccc2ncnc(Nc3ccc(Oc4ccc(C)nc4)c(C)c3)c2c1 with STK24 (human) - kinase still bound, per cent of control?
90

Form field - read-out: kinase still bound, per cent of control; system: STK24 (human); submitted item: CS(=O)(=O)N1CCN(Cc2cc3nc(-c4cccc5[nH]ncc45)nc(N4CCOCC4)c3s2)CC1
100
